Biological target: full-length beta-Catenin (Uniprot ID P35222) (Homo sapiens, UniProt P35222)
Construct: 10 nM full-length beta-Catenin (Uniprot ID P35222)
Sequence (P35222 whole entry, one chain of several): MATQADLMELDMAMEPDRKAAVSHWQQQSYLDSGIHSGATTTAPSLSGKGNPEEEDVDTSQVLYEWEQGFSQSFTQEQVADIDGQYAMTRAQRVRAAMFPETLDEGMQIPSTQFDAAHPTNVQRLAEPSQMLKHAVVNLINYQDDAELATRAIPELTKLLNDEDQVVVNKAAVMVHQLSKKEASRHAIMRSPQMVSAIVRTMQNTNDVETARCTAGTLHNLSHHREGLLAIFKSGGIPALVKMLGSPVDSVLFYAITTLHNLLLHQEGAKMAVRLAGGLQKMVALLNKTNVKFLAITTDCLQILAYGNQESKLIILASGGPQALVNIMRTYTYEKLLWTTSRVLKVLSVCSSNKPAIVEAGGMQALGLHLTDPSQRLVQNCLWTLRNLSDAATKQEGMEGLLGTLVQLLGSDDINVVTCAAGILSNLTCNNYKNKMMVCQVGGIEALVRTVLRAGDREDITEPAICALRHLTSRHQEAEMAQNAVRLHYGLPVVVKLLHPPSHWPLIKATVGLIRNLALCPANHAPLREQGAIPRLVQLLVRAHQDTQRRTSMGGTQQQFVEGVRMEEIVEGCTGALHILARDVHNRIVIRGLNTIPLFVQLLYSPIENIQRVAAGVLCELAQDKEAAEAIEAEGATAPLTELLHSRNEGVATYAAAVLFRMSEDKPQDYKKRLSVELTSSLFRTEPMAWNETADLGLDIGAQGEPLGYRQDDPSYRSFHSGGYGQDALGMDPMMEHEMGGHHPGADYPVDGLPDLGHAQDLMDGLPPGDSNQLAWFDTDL
Assay: Fluorescence polarization IC50 (beta-catenin / 5FAM-TCF4 10-53 competition)
Format: binding
Conditions: read-out: FP EC50
valueType: IC50 (nM)
API: value field is a number in nM; no unit string.

Below are worked cases with known answers.
CC[C@H](C)[C@@H]1NC(=O)[C@H](CC(=O)O)NC(=O)[C@]2(CC=CCCCC3(CCCC=CCCCCCC[C@@](C)(C(=O)N[C@@H](Cc4ccccc4)C(=O)N[C@@H](Cc4csc5ccccc45)C(=O)N[C@@H](CCC(N)=O)C(N)=O)NC(=O)[C@H](CCC(N)=O)NC(=O)[C@H](Cc4ccccc4)NC(=O)[C@H](C)NC(=O)[C@H](C)NC(=O)[C@H](CN(CC(=O)O)CC(F)(F)F)NC(=O)[C@H](CC(=O)O)NC3=O)NC1=O)CCCN2C(C)=O (some centres unmarked) [I-611]
55
CC[C@@H](C)[C@@H]1NC(=O)[C@H](CC(=O)O)NC(=O)[C@]2(CC=CCCCC3(CCCC=CCCCCCC[C@@](C)(C(=O)N[C@@H](Cc4ccccc4)C(=O)N[C@@H](Cc4csc5ccccc45)C(=O)N[C@@H](CCC(N)=O)C(N)=O)NC(=O)[C@H](CC(N)=O)NC(=O)[C@H](Cc4ccccc4)NC(=O)[C@H](C)NC(=O)[C@H](C)NC(=O)[C@H](CCC(=O)O)NC(=O)[C@H](CC(=O)O)NC3=O)NC1=O)CCCN2C(C)=O (some centres unmarked) [I-475]
102
CC[C@@H](C)[C@@H]1NC(=O)[C@H](CC(=O)O)NC(=O)[C@]2(CC=CCCCC3(CCCC=CCCCCCC[C@@](C)(C(=O)N[C@@H](Cc4ccccc4)C(=O)N[C@@H](Cc4csc5ccccc45)C(=O)N[C@@H](CCC(N)=O)C(N)=O)NC(=O)[C@H](CC(N)=O)NC(=O)[C@H](Cc4ccccc4)NC(=O)[C@H](C)NC(=O)[C@H](C)NC(=O)[C@H](CCC(=O)O)NC(=O)[C@H](CC(=O)O)NC3=O)NC1=O)CCCN2C(C)=O (some centres unmarked) [I-476]
48
CC[C@H](C)[C@@H]1NC(=O)[C@H](CC(=O)O)NC(=O)[C@]2(CC=CCCCC3(CCCC=CCCCCCC[C@@](C)(C(=O)N[C@@H](Cc4ccccc4)C(=O)N[C@@H](Cc4csc5ccccc45)C(=O)N[C@@H](CCC(N)=O)C(=O)N[C@@H](CCCCNC(=O)CN=[N+]=[N-])C(N)=O)NC(=O)[C@H](CCC(N)=O)NC(=O)[C@H](Cc4ccccc4)NC(=O)[C@H](C)NC(=O)[C@H](C)NC(=O)[C@H](CCC(=O)O)NC(=O)[C@H](CC(=O)O)NC3=O)NC1=O)CCCN2C(C)=O (some centres unmarked) [I-596]
112

In the following, a different compound is considered.
What value of IC50 has been recorded for this entry: CC[C@H](C)[C@@H]1NC(=O)[C@H](CC(=O)O)NC(=O)[C@]2(CC=CCCCC3(CCCC=CCCCCCC[C@@](C)(C(=O)N[C@@H](Cc4ccccc4)C(=O)N[C@@H](Cc4csc5ccccc45)C(N)=O)NC(=O)[C@H](CCC(N)=O)NC(=O)[C@H](Cc4ccccc4)NC(=O)[C@H](C)NC(=O)[C@H](C)NC(=O)[C@H](CCC(=O)O)NC(=O)[C@H](CC(=O)O)NC3=O)NC1=O)CCCN2C(C)=O (some centres unmarked) [I-408] 120

###

Listed next: entries and their corresponding pIC50.
Target: beta-catenin/TCF4 engagement (Homo sapiens)
Construct: expressed in transfected cells; host or cells: HEK293
Sequence (P35222 whole entry): as the sequence (P35222 whole entry, one chain of several) above
Test: Nano-BRET target engagement assay (B-cat-Halo & TCF4-Luc in HEK293 cells)
Assay type: cell-based
Settings: absolute IC50; read-out: NanoBRET Abs IC50
In plain terms, pIC50 is the concentration in mol/L turned into minus its base-10 logarithm.

CC(=O)N1CCC[C@]12CC=CCCCC1(CCCC=CCCCOC(=O)N3CC[C@@](C(=O)N[C@@H](Cc4ccccc4Cl)C(=O)N[C@@H](Cc4csc5ccccc45)C(=O)N[C@H](C(N)=O)[C@@H](C)O)(C3)NC(=O)[C@H](CO)NC(=O)[C@H](Cc3ccccc3)NC(=O)[C@H](C)NC(=O)[C@H](C)NC(=O)[C@H](CC(=O)O)NC(=O)[C@H](CC(=O)O)NC1=O)NC(=O)[C@H](Cc1ccccc1)NC(=O)[C@H](CC(=O)O)NC2=O (some centres unmarked) [I-1141]
4.56
CC(=O)N1CCC[C@]12CC=CCCCC1(CCCC=CCCCOC(=O)N3CC[C@@](C(=O)N[C@@H](Cc4ccccc4C(F)(F)F)C(=O)N[C@@H](Cc4csc5ccccc45)C(=O)N[C@@H](CCC(=O)N4CCOCC4)C(N)=O)(C3)NC(=O)[C@H](CCC(=O)N(C)C)NC(=O)[C@H](Cc3ccccc3)NC(=O)[C@H](C)NC(=O)[C@H](C)NC(=O)[C@H](Cc3cccc(C(=O)O)c3)NC(=O)[C@H](CC(=O)O)NC1=O)NC(=O)[C@H](CC(C)(C)C)NC(=O)[C@H](CC(=O)O)NC2=O (some centres unmarked) [I-2545]
5.40

In the following, a different compound is considered.
What value of pIC50 has been recorded for this entry: CC(=O)N1CCC[C@]12CC=CCCCC1(CCCC=CCCCCCC[C@@](C)(C(=O)N[C@@H](Cc3ccccc3)C(=O)N[C@@H](Cc3csc4ccccc34)C(=O)N[C@@H](CCC(N)=O)C(N)=O)NC(=O)[C@H](CC(N)=O)NC(=O)[C@H](Cc3ccccc3)NC(=O)[C@H](C)NC(=O)[C@H](C)NC(=O)[C@H](CCC(=O)O)NC(=O)[C@H](CC(=O)O)NC1=O)NC(=O)[C@H](CC(C)C)NC(=O)[C@H](CC(=O)O)NC2=O (some centres unmarked) [I-576] 4.95

###

Biological target: full-length beta-Catenin (Uniprot ID P35222) (Homo sapiens)
Construct: 10 nM full-length beta-Catenin (Uniprot ID P35222)
Assay: Fluorescence polarization IC50 (beta-catenin / 5FAM-TCF4 10-53 competition)
Format: binding
Conditions: FP EC50 (nM), fluorescence polarization, beta-catenin
valueType: IC50
# number then unit; no other words

CC(=O)N1CCC[C@]12CC=CCCCC1(CCCC=CCCCOC(=O)N3CC[C@@](C(=O)N[C@@H](Cc4ccsc4)C(=O)N[C@@H](Cc4csc5ccccc45)C(=O)N[C@@H](CCC(N)=O)C(N)=O)(C3)NC(=O)[C@H](CC(N)=O)NC(=O)[C@H](Cc3ccccc3)NC(=O)[C@H](C)NC(=O)[C@H](C)NC(=O)[C@H](CC(=O)O)NC(=O)[C@H](CC(=O)O)NC1=O)NC(=O)[C@H](CCCCNC(=O)CN=[N+]=[N-])NC(=O)[C@H](CC(=O)O)NC2=O (stereo partly drawn)
6 nM

What value of IC50 has been recorded for this entry: C[C@@H]1NC(=O)[C@H](C)NC(=O)[C@H](CC(=O)O)NC(=O)[C@H](CC(=O)O)NC(=O)C2(CCCC=CCCCOC(=O)N3CC[C@@](C(=O)N[C@@H](Cc4ccccc4Cl)C(=O)N[C@@H](Cc4csc5ccccc45)C(=O)N[C@@H](C(N)=O)[C@H](C)O)(C3)NC(=O)[C@H]([C@@H](C)O)NC(=O)[C@H](Cc3ccccc3)NC1=O)CCCC=CC[C@]1(CCCN1C(=O)CN=[N+]=[N-])C(=O)N[C@@H](CC(=O)O)C(=O)N[C@@H](CC(C)(C)C)C(=O)N2 (stereo partly drawn) 38 nM

Would you mind doing C[C@@H]1NC(=O)[C@H](C)NC(=O)[C@H](CN(CC(=O)O)CC(F)(F)F)NC(=O)[C@H](CC(=O)O)NC(=O)C2(CCCC=CCCCOC(=O)N3CC[C@@](C(=O)N[C@@H](Cc4ccccc4Cl)C(=O)N[C@@H](Cc4csc5ccccc45)C(=O)N[C@@H](CCC(N)=O)C(N)=O)(C3)NC(=O)[C@H]([C@@H](C)O)NC(=O)[C@H](Cc3ccccc3)NC1=O)CCCC=CC[C@]1(CCCN1C(=O)CN=[N+]=[N-])C(=O)N[C@@H](CC(=O)O)C(=O)N[C@@H](CC(C)(C)C)C(=O)N2 (stereo partly drawn) as well? 42 nM

###

Assay: Solubility in PBS
Format: physicochemical
Conditions: Solubility (uM)
valueType: Solubility (µM)
API: value field is a number in µM; no unit string.

CC[C@H](C)[C@@H]1NC(=O)[C@H](CC(=O)O)NC(=O)[C@]2(CC=CCCCC3(CCCC=CCCCCCC[C@@](C)(C(=O)N[C@@H](Cc4ccccc4)C(=O)N[C@@H](Cc4csc5ccccc45)C(=O)N[C@@H](Cc4c[nH]cn4)C(N)=O)NC(=O)[C@H](CCC(N)=O)NC(=O)[C@H](Cc4ccccc4)NC(=O)[C@H](C)NC(=O)[C@H](C)NC(=O)[C@H](CCC(=O)O)NC(=O)[C@H](CC(=O)O)NC3=O)NC1=O)CCCN2C(C)=O (stereo partly drawn)
13

What value of Solubility has been recorded for this entry: CC(=O)N1CCC[C@]12CC=CCCCC1(CCCC=CCCCOC(=O)N3CC[C@@](C(=O)N[C@@H](Cc4ccccc4Cl)C(=O)N[C@@H](Cc4csc5ccccc45)C(=O)N[C@@H](CCO)C(N)=O)(C3)NC(=O)[C@H](CO)NC(=O)[C@H](Cc3ccccc3)NC(=O)[C@H](C)NC(=O)[C@H](C)NC(=O)[C@H](CC(=O)O)NC(=O)[C@H](CC(=O)O)NC1=O)NC(=O)[C@H](Cc1ccccc1)NC(=O)[C@H](CC(=O)O)NC2=O (stereo partly drawn) 44

Would you mind doing CC(=O)N1CCC[C@H]1C(=O)N[C@@H](CC(=O)O)C(=O)N[C@@H](CC(C)(C)C)C(=O)N[C@]1(C)CCCC=CCCCOC(=O)N2CC[C@@](C(=O)N[C@@H](Cc3ccsc3)C(=O)N[C@@H](Cc3csc4ccccc34)C(=O)N[C@@H](CCC(N)=O)C(N)=O)(C2)NC(=O)[C@H](CC(N)=O)NC(=O)[C@H](Cc2ccccc2)NC(=O)[C@H](C)NC(=O)[C@H](C)NC(=O)[C@H](CC(=O)O)NC(=O)[C@H](CC(=O)O)NC1=O as well? 48
